METHOD NOTES: Inhibition of PFOR Trichomonas vaginalis
OBSERVATION TYPE: Ki (µM)
Give bare numbers, in µM.

Give reported Ki value for CC(=O)Oc1ccccc1C(=O)Nc1ncc([N+](=O)[O-])s1 [NITAZOXANIDE] 2.2

---

METHOD NOTES: Inhibition of PFOR Entamoeba histolytica
OBSERVATION TYPE: Ki (µM)
Answers are plain numbers, in µM.

Give reported Ki value for CC(=O)Oc1ccccc1C(=O)Nc1ncc([N+](=O)[O-])s1 [NITAZOXANIDE] 10

---

TESTED TARGET: Pyruvate-flavodoxin oxidoreductase (Campylobacter jejuni subsp. jejuni)
Sequence (Q0P8E1 whole entry): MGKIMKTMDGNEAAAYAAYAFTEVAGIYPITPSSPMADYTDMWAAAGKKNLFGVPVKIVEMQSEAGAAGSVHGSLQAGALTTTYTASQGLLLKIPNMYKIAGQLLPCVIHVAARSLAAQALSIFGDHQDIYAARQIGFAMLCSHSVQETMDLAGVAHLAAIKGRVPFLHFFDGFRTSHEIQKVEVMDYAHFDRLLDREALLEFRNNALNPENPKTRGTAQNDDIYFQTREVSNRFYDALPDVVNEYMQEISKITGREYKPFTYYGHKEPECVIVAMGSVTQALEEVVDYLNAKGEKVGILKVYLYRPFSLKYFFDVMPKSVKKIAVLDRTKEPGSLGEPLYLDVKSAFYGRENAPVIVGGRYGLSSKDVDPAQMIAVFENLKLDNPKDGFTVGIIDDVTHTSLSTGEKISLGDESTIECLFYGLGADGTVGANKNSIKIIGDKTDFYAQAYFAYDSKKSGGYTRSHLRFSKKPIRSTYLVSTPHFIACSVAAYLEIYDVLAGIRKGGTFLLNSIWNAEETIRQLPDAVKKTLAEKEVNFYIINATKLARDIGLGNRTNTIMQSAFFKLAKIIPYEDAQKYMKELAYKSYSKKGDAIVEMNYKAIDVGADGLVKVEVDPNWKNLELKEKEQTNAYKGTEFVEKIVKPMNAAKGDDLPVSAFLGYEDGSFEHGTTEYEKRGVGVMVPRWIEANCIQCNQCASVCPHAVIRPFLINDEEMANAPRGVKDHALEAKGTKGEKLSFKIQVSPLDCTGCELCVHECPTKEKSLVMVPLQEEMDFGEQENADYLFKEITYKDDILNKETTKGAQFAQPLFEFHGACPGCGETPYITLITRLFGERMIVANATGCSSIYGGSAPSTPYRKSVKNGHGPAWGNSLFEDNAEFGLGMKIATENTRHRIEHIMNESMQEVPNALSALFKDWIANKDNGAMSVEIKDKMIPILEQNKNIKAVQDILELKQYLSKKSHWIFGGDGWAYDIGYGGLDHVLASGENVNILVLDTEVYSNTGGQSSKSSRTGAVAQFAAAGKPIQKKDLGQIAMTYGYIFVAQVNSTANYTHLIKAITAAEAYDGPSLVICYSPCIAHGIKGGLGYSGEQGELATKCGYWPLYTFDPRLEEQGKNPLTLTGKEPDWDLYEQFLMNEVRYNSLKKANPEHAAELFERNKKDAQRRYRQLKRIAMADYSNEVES
OBSERVATION TYPE: pKi
Numbers only, as −log10 of the molar value.

Give reported pKi value for CC(=O)Oc1ccccc1C(=O)Nc1ncc([N+](=O)[O-])s1 [NITAZOXANIDE] 4.98
